Target: RORc ligand binding domain (Homo sapiens, UniProt P51449)
Sequence (P51449 269-508 limits assumed): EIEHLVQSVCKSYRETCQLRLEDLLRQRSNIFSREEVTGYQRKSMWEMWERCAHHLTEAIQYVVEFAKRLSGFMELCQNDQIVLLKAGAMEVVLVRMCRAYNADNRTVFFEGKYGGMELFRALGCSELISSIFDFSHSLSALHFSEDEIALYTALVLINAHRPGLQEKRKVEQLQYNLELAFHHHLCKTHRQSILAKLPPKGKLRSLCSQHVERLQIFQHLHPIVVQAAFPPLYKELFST
Observation type: IC50 (nM)

Smiles repr | Tgt | IC50, nM
Cn1c([C@@]23CC[C@@H](c4cc(-c5c(F)cccc5F)nnc42)C3(C)C)cccc1=O | RORc ligand binding domain (Homo sapiens, UniProt P51449) | 8

[a] CC1(C)[C@@H]2CC[C@@]1(C(=O)N1CCC[C@H]1C(N)=O)c1nnc(-c3c(F)cccc3F)cc12
[b] CC(=O)N[C@@]12CC[C@@H](c3cc(-c4ccccc4F)nnc31)C2(C)C
[c] CCN(C[C@@]12CC[C@@H](c3cc(-c4c(F)cccc4F)nnc31)C2(C)C)c1cncc(=O)[nH]1
Problem: Please rank these compounds by IC50 in descending order. API: response body holds the labels in the requested order.
Solution: a, b, c

###

Target: RORc ligand binding domain (Homo sapiens, UniProt P51449)
Sequence (P51449 269-508 limits assumed): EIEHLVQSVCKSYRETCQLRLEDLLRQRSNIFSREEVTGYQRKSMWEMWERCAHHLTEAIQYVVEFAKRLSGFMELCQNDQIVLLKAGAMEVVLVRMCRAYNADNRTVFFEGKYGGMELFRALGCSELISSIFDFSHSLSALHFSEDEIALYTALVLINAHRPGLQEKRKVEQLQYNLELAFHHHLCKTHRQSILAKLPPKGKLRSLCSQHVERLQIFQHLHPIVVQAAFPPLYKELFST
pIC50: −log10 of the molar value.
Observation type: pIC50

Use these answered entries as a reference point.
Compound | pIC50
Cc1nnc(N(C)C[C@@]23CC[C@@H](c4cc(-c5c(F)cccc5F)nnc42)C3(C)C)o1 [Example 146] | 7.96
CC1(C)[C@H]2CC[C@]1(COCc1ccccc1)c1nnc(Oc3c(F)cccc3F)cc12 [Example 338] | 7.18
COC1CN(C(=O)[C@@]23CC[C@@H](c4cc(-c5c(F)cccc5F)nnc42)C3(C)C)C1 [Example 188] | 5.61

[1] CC1(C)[C@H]2CC[C@]1(CN(CC(F)F)C(=O)CO)c1nnc(-c3c(F)cccc3F)cc12 [Example 308]
[2] CC[C@]12CC[C@H](c3cc(-c4ccccc4F)nnc31)C2(C)C [Example 35]
Problem: Please state the entry with greater pIC50 among 1 and 2 . Which one? Tell me its label.
Solution: 1
(1: 7.66, 2: 7.43)

[I] CCN(C[C@@]12CC[C@@H](c3cc(-c4c(F)cccc4F)nnc31)C2(C)C)c1cccc(=O)[nH]1 [Example 301]
[II] CCN(C(=O)CO)C(C)(C)[C@@]12CC[C@@H](c3cc(-c4c(F)cccc4F)nnc31)C2(C)C [Example 271]
[III] CNC(=O)C1CCCN1C(=O)[C@]12CC[C@H](c3cc(-c4c(F)cccc4F)nnc31)C2(C)C (stereo partly shown) [Example 243]
Problem: Please rank these compounds by pIC50 in descending order. API: response body holds the labels in the requested order.
Solution: I, II, III

[a] CC1(C)[C@H]2CC[C@]1(NS(C)(=O)=O)c1nnc(-c3c(F)cccc3F)cc12 [Example 282]
[b] Cn1ncnc1[C@@]12CC[C@@H](c3cc(-c4c(F)cccc4F)nnc31)C2(C)C [Example 251]
Problem: Please state the entry with greater pIC50 among a and b . Which one? Tell me its label.
Solution: b
(b: 6.21, a: 6.01)

###

The reader will find IC50 measurements below, all made with RORc ligand binding domain (Homo sapiens).
Observation type: IC50 (µM)

Smiles repr | IC50 (µM)
CNC(=O)N(C)C[C@]12CC[C@H](c3cc(-c4ccccc4F)nnc31)C2(C)C | 0.624

[P] CC1(C)CCN(C(=O)[C@]23CC[C@H](c4cc(-c5c(F)cccc5F)nnc42)C3(C)C)C1
[Q] CC1(C)[C@H]2CC[C@]1(c1nnc(C(F)F)o1)c1nnc(-c3c(F)cccc3F)cc12
Problem: Of P and Q , whose reported IC50 is numerically smaller? Which one? Tell me its label.
Solution: Q
(Q: 0.17 µM, P: 0.498 µM)

###

Biological target: RORc ligand binding domain (Homo sapiens, UniProt P51449)
Sequence (P51449 269-508 limits assumed): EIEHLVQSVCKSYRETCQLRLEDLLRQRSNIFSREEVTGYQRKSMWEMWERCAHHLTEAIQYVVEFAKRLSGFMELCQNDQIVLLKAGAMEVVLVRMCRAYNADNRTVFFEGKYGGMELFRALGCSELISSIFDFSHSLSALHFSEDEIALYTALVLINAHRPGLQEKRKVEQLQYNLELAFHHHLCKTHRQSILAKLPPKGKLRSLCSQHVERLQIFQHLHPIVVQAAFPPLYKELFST
pIC50: −log10 of the molar value.
Observation type: pIC50

Use these answered entries as a reference point.
Smiles repr | Observed value
CN(C)C1CN(C(=O)[C@]23CC[C@H](c4cc(-c5c(F)cccc5F)nnc42)C3(C)C)C1 | 5.95
CC1(C)[C@@H]2CC(=O)[C@@]1(C)c1nnc(-c3ccccc3F)cc12 | 5.62
CCN(C[C@@]12CC[C@@H](c3cc(-c4c(F)cccc4F)nnc31)C2(C)C)c1ncccn1 | 8.40
COCc1nc(C[C@@]23CC[C@@H](c4cc(-c5c(F)cccc5F)nnc42)C3(C)C)no1 | 6.89
CN(C)C(=O)C[C@]12CC[C@H](c3cc(-c4ccccc4F)nnc31)C2(C)C | 5.29

[1] CC1(C)[C@@H]2CC[C@@]1(C(=O)N1CC[C@H](CO)C1)c1nnc(-c3c(F)cccc3F)cc12
[2] CC1(C)[C@@H]2CC[C@@]1(C(=O)N1CCOCC1)c1nnc(-c3c(F)cccc3F)cc12
[3] CC1(C)[C@H]2CC[C@]1(c1ccnn1CCC#N)c1nnc(-c3c(F)cccc3F)cc12
Problem: Please rank these compounds by pIC50 in descending order. API: response body holds the labels in the requested order.
Solution: 2, 3, 1
(2: 7.38, 3: 6.33, 1: 6.08)

###

The reader will find IC50 measurements below, all made with RORc ligand binding domain (Homo sapiens, UniProt P51449).
Observation type: IC50 (nM)

Use these answered entries as a reference point.
Compound | IC50 (nM)
CN([C@@]12CC[C@@H](c3cc(-c4c(F)cccc4F)nnc31)C2(C)C)S(C)(=O)=O [Example 286] | 219
CC1(C)[C@H]2CC[C@]1(Cc1ncon1)c1nnc(-c3c(F)cccc3F)cc12 [Example 57] | 85
COC[C@@]12CC[C@@H](c3cc(-c4c(F)cccc4Cl)nnc31)C2(C)C [Example 29] | 41

[I] CC1(C)[C@H]2CC[C@]1(C)c1nnc(Oc3c(F)cccc3F)cc12 [Example 99]
[II] CC(C)(C#N)NC(=O)[C@@]12CC[C@@H](c3cc(-c4ccccc4F)nnc31)C2(C)C [Example 174]
Problem: Of I and II , whose reported IC50 is numerically smaller? Which one? Tell me its label.
Solution: I
(I: 280 nM, II: 3080 nM)

###

Biological target: RORc ligand binding domain (Homo sapiens)
Sequence (P51449 269-508 limits assumed): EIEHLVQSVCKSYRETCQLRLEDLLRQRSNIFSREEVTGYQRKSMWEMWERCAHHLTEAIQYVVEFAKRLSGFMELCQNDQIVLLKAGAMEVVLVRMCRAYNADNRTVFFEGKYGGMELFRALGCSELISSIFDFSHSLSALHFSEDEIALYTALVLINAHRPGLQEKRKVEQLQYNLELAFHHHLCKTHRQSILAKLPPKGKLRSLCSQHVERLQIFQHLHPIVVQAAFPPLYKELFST
Observation type: IC50 (nM)

Use these answered entries as a reference point.
Compound | Observation type | Observed value
CCN(C[C@@]12CC[C@@H](c3cc(-c4c(F)cccc4F)nnc31)C2(C)C)C(=O)CC#N [Example 160] | IC50 | 27
CCN(C[C@@]12CC[C@@H](c3cc(-c4c(F)cccc4F)nnc31)C2(C)C)S(=O)(=O)CCC(F)(F)F [Example 345] | IC50 | 11
Cc1ocnc1[C@]12CC[C@H](c3cc(-c4c(F)cccc4F)nnc31)C2(C)C [Example 228] | IC50 | 137
CCc1nnc([C@@]23CC[C@@H](c4cc(-c5c(F)cccc5F)nnc42)C3(C)C)o1 [Example 122] | IC50 | 17
CCNC(=O)[C@]12CC[C@H](c3cc(-c4ccccc4F)nnc31)C2(C)C [Example 134] | IC50 | 211

[A] CC1(C)[C@H]2CC[C@]1(CN1CCCC1=O)c1nnc(-c3c(F)cccc3F)cc12 [Example 273]
[B] C=C1C[C@@H]2c3cc(-c4ccccc4F)nnc3[C@@]1(C)C2(C)C [Example 51]
Problem: Of A and B , whose reported IC50 is numerically smaller? Which one? Tell me its label.
Solution: A
(A: 453 nM, B: 657 nM)

[I] CC1(C)[C@H]2CC[C@]1(CN(CC(N)=O)CC(F)F)c1nnc(-c3c(F)cccc3F)cc12 [Example 305]
[II] CC1(C)[C@H]2CC[C@]1(C)c1nnc(-c3c(F)cccc3F)cc12 [Example 1]
Problem: Please state the entry with greater IC50 among I and II . Which one? Tell me its label.
Solution: I
(I: 437 nM, II: 114 nM)
